Reference source for all entries: patent US20190367619A1

- TESTED ON: T1, human galectin-10-His (human)
- T1 construct: The last M of the tag may be Met1 of galectin-10; also called humanGal10-His; hGal10
- T1 chain: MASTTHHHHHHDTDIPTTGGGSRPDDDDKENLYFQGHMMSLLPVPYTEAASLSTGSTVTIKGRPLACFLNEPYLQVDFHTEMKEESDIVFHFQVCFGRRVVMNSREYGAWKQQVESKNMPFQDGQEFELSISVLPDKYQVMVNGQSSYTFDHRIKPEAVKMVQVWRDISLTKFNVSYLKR
- PROCEDURE DETAILS: ELISA, galectin-10-His coated at 1 ug/mL, Fab
REPORTED ENDPOINT: log10 EC50 (log10 of the value in nM)

BINDER	log10 EC50
8H11 Fab (Fab, V domains shown, Fab with human CH1 (including part of the hinge region) and human lambda constant domain; also called 8H11 hFab) VH: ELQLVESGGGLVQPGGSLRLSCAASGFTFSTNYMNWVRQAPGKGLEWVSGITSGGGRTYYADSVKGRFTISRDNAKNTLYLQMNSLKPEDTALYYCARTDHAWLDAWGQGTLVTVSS VL: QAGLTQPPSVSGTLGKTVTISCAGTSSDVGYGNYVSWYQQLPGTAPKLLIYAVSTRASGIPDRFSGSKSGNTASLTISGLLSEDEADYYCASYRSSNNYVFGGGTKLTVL	1.39
11F02 Fab (Fab, V domains shown, Fab with human CH1 (including part of the hinge region) and human lambda constant domain; also called 11F02 hFab) VH: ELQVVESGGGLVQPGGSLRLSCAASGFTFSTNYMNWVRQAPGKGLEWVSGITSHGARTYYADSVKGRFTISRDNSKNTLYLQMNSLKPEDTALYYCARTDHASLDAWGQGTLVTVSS VL: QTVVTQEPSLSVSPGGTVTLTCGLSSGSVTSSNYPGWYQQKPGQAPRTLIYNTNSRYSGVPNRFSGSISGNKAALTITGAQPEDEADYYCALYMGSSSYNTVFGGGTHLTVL	1.91
10A06 Fab (Fab, V domains shown, Fab with human CH1 (including part of the hinge region) and human lambda constant domain; also called 10A06 hFab) VH: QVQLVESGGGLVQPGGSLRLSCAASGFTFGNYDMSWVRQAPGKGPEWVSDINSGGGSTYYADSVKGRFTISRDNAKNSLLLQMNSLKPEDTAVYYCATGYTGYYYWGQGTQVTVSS VL: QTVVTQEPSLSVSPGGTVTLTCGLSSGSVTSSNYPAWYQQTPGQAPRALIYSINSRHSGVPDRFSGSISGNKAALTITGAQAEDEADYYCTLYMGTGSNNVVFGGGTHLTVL	1.95
10D02 Fab (Fab, V domains shown, Fab with human CH1 (including part of the hinge region) and human lambda constant domain; also called 10D2; 10D02 hFab) VH: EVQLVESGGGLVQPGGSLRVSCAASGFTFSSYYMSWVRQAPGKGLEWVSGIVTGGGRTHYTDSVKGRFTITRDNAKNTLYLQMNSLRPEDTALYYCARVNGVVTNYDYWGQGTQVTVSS VL: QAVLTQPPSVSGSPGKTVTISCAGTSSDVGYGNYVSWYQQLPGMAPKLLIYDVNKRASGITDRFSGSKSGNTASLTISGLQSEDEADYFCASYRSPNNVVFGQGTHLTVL	1.21
7B07 Fab (Fab, V domains shown, Fab with human CH1 (including part of the hinge region) and human lambda constant domain; also called 7B7; 7B07 hFab) VH: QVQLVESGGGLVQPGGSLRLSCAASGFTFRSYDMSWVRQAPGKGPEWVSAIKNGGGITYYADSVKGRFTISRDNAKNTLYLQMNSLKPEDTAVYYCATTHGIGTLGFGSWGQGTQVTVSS VL: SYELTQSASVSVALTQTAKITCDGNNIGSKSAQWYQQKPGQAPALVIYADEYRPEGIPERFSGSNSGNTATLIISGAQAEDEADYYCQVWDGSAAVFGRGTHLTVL	1.39
10B02 Fab (Fab, V domains shown, Fab with human CH1 (including part of the hinge region) and human lambda constant domain; also called 10B02 hFab) VH: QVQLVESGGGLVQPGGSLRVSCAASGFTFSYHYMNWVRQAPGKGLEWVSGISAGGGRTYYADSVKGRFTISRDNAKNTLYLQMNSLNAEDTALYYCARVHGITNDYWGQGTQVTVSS VL: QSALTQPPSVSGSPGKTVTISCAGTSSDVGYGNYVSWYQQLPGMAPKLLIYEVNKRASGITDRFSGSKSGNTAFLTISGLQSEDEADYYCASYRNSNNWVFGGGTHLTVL	1.79
11F12 Fab (Fab, V domains shown, Fab with human CH1 (including part of the hinge region) and human lambda constant domain; also called 11F12 hFab) VH: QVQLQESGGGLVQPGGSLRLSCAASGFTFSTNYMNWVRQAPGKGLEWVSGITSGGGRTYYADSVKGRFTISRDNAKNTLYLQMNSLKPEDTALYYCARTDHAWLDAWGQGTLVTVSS VL: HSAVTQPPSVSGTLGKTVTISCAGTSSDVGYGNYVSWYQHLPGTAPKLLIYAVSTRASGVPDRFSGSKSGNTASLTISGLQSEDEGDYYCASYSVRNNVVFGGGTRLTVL	1.35
1D11 Fab (Fab, V domains shown, Fab with human CH1 (including part of the hinge region) and human lambda constant domain; also called Fab-1D11; 1D11 hFab) VH: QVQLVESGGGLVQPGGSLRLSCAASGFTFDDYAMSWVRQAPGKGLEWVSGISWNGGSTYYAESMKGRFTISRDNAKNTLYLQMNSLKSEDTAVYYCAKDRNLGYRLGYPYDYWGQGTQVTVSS VL: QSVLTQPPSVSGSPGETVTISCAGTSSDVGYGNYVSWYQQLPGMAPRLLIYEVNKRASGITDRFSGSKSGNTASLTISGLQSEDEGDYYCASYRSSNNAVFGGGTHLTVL	0.15
